From: patent US20260200920A1

# Tested on: human recombinant kinase full-length AKT1 E17K (Homo sapiens, UniProt P31749, E17K)
# Construct: Purified human recombinant kinase full-length AKT1 E17K was expressed in insect cells
# Sequence (P31749 whole entry E17K): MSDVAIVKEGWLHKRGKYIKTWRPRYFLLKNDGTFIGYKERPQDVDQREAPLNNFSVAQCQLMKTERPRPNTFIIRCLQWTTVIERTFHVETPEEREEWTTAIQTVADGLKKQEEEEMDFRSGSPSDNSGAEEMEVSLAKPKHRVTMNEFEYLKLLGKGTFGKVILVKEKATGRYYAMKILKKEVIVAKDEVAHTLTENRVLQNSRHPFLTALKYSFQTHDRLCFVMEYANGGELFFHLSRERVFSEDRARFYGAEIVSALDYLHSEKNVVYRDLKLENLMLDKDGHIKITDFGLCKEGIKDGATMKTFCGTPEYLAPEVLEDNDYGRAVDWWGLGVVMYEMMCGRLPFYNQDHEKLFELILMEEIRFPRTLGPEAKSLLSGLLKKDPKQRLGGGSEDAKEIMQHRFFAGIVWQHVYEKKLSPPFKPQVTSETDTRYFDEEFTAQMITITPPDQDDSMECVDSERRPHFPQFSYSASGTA
# Protocol text: AKT1 E17K kinase assay (TR-FRET, Lance)
# Run conditions: 0.6 nM AKT1 E17K, 50 nM Ulight-CREBtide, either 50 μM ATP or 2 mM ATP, 60 min at RT
Metric: IC50

Cc1nc(NC[C@@H]2CC[C@H](C(=O)O)C2)ccc1-n1c(-c2cccnc2N)nc2ccc(-c3ccccc3)nc21 = 0.5 to 2 µM
Cc1cc(C2CN(C[C@H]3CC[C@H](C(=O)O)CC3)C2)ccc1-n1c(-c2cccnc2N)nc2ccc(-c3ccccc3)cc21 = ≥ 2 µM

Challenge: Please state recorded IC50 (tested on human recombinant kinase full-length AKT1 E17K (Homo sapiens, UniProt P31749, E17K)) of Nc1ncccc1-c1nc2ccc(-c3ccccc3)cc2n1-c1ccc(NC(=O)[C@H]2CC[C@H](C(=O)O)CC2)nc1
Response given: 0.5 to 2 µM
